Reported IC50 values are given for each entry in this list.
Target: human p38α (Homo sapiens)
Assay: Purified and activated recombinant human p38α assay (HTRF)
Conditions: 1 nM p38α, 50 μM ATP, 100 nM GST-ATF2-Avitag, 1 hour at RT, read-out: p38a IC50 IC50
Kindly answer with a numeric value in nM, unit omitted.

Example compounds with recorded IC50:
# Compound, Experimental target, IC50 (nM)
records = [
    ("Cc1ncccc1-c1nncc2cc(Nc3ccc(F)cc3)ccc12 [Example 29]", "human p38α (Homo sapiens)", 0.7),
    ("Cc1cc(S(C)(=O)=O)c(Cl)cc1-c1nncc2cc(Nc3ccc(F)cc3F)ccc12 [Example 26]", "human p38α (Homo sapiens)", 0.7),
    ("Cc1cc(F)ccc1-c1nncc2cc(Nc3ccc(F)cn3)ccc12 [Example 22]", "human p38α (Homo sapiens)", 0.8),
]

### Prompt human p38α (Homo sapiens) / IC50 / Cc1ccccc1-c1nncc2cc(Nc3ccc(F)cc3F)ccc12 [Example 8] : value?
### Response 0.2

### Prompt Same read-out for CC1CCCN1c1nncc2cc(Nc3ccc(F)cc3F)ccc12 (centres unmarked) [Example 1] ?
### Response 1.5

### Prompt Continue with CC1CCCN1c1nncc2cc(Nc3ccccc3)ccc12 (centres unmarked) [Example 17]
### Response 5

### Prompt Next compound: Cc1cc(F)ccc1-c1nncc2cc(Nc3cccc(F)c3)ccc12 [Example 21]
### Response 0.5

### Prompt What do you have for CC(c1nncc2cc(Nc3ccc(F)cc3)ccc12)C(F)(F)F (centres unmarked) [Example 5] ?
### Response 1

### Prompt Also check CC(C)c1nncc2cc(Nc3ccc(F)cc3F)ccc12 [Example 7]
### Response 0.4

### Prompt Please do the same for Cc1cc(F)ccc1-c1nncc2cc(Sc3cccc(F)c3)ccc12 [Example 4] as well.
### Response 1

### Prompt Then what about the compound Cc1cc(S(C)(=O)=O)ccc1-c1nncc2cc(Nc3ccc(F)cc3F)ccc12 [Example 10] ?
### Response 0.3

###

Target: human p38α (Homo sapiens)
Experiment: Purified and activated recombinant human p38α assay (HTRF)
Conditions: 1 nM p38α, 50 μM ATP, 100 nM GST-ATF2-Avitag, 1 hour at RT, read-out: p38a IC50 IC50
This listing pairs compounds with measured pIC50.
Scale explanation: pIC50 corresponds to minus log10 of a concentration expressed in moles per litre.

# Compound, Measurement
rows = [
    ("Cc1cc(F)ccc1-c1nncc2cc(Nc3ccc(F)cc3)ccc12 [Example 11]", 9.40),
    ("COc1ncccc1-c1nncc2cc(Nc3ccc(F)cc3)ccc12 [Example 28]", 9.05),
    ("Cc1cc(F)ccc1-c1nncc2cc(Nc3ncccc3C)ccc12 [Example 14]", 9.15),
]

### Prompt Under human p38α (Homo sapiens): pIC50 value of Cc1cc(F)ccc1Nc1ccc2c(-c3ccc(F)cc3C)nncc2c1 [Example 20] ?
### Response 9.52

### Prompt Moving on to CC(Oc1nncc2cc(Nc3ccc(F)cc3F)ccc12)C(F)(F)F (racemic) [Example 6]
### Response 8.51

###

Molecular target: human p38α (Homo sapiens, UniProt Q16539)
Sequence (Q16539 whole entry): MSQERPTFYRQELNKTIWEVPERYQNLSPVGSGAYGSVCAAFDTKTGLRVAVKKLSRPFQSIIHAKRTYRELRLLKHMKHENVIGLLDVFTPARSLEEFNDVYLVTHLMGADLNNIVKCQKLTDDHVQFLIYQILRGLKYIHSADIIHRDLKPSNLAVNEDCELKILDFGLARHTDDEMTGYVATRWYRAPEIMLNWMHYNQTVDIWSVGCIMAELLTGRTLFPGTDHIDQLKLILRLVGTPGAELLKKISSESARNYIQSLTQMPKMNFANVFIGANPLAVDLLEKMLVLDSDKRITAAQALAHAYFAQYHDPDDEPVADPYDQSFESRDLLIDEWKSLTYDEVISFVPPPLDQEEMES
Experiment: Purified and activated recombinant human p38α assay (HTRF)
Conditions: 1 nM p38α, 50 μM ATP, 100 nM GST-ATF2-Avitag, 1 hour at RT, read-out: p38a IC50 IC50
Description: Purified and Activated Recombinant Human p38α Assay Kinase Reaction Buffer: Kinase reaction buffer for p38α HTRF assays consists of 50 mM Tris-pH 7.5, 5 mM MgCl2, 0.1 mg/mL BSA, 100 μM Na3VO4 and 0.5 mM DTT. […] Serial Dilution of Compounds: Compounds were dissolved in 100% DMSO and serially diluted (3 fold, 10 point) in a polypropylene 96-well microtiter plate (drug plate). […] In the absence of substrate, the background was measured as LO control. […]
Listed here are molecules together with their documented IC50.
Dear colleague, please return just the value in nM, with no unit written.

Example entries begin here.
# Molecule, IC50 / nM
data = [
    ("Cc1ccccc1-c1nncc2cc(Nc3ccccc3)ccc12 [Example 9]", 0.2),
    ("Cc1cccc(Nc2ccc3c(-c4ccc(F)cc4C)nncc3c2)n1 [Example 15]", 1.5),
    ("Cc1cc(S(C)(=O)=O)c(Cl)cc1-c1nncc2cc(Nc3ccc(F)cc3)ccc12 [Example 25]", 0.7),
    ("Cc1cc(F)ccc1-c1nncc2cc(Nc3ccccn3)ccc12 [Example 16]", 1.6),
    ("Cc1cc(F)ccc1-c1nncc2cc(Nc3ccc(F)cc3C(F)(F)F)ccc12 [Example 13]", 0.5),
    ("Cc1cccc(Nc2ccc3c(-c4ccc(F)cc4C)nncc3c2)c1 [Example 19]", 0.3),
    ("Cc1cc(S(C)(=O)=O)c(F)cc1-c1nncc2cc(Nc3ccc(F)cc3)ccc12 [Example 24]", 0.7),
    ("Cc1cc(S(C)(=O)=O)ccc1-c1nncc2cc(Nc3ccc(F)cc3)ccc12 [Example 2]", 0.3),
]

### Prompt IC50 lookup needed for C[C@@H](Oc1nncc2cc(Nc3ccc(F)cc3F)ccc12)C(F)(F)F [Example 6a] , thanks.
### Response 1.5

### Prompt Next molecule up: Cn1nccc1-c1nncc2cc(Nc3ccc(F)cc3)ccc12 [Example 32]
### Response 1

### Prompt Now try Cc1noc(C)c1-c1nncc2cc(Nc3ccc(F)cc3)ccc12 [Example 30] .
### Response 0.9

### Prompt # iterate: Cc1cc(S(C)(=O)=O)ccc1-c1nncc2cc(Nc3ccc(F)cn3)ccc12 [Example 33]
### Response 0.8

### Prompt # repeat for Fc1ccc(Nc2ccc3c(-c4ccccc4Cl)nncc3c2)cc1 [Example 31]
### Response 0.7

###

We begin with a simple list: items and their reported IC50.
Target: human p38α (Homo sapiens)
Assay: Purified and activated recombinant human p38α assay (HTRF)
Settings: 1 nM p38α, 50 μM ATP, 100 nM GST-ATF2-Avitag, 1 hour at RT, read-out: p38a IC50 IC50
Description: Purified and Activated Recombinant Human p38α Assay Kinase Reaction Buffer: Kinase reaction buffer for p38α HTRF assays consists of 50 mM Tris-pH 7.5, 5 mM MgCl2, 0.1 mg/mL BSA, 100 μM Na3VO4 and 0.5 mM DTT. […] Serial Dilution of Compounds: Compounds were dissolved in 100% DMSO and serially diluted (3 fold, 10 point) in a polypropylene 96-well microtiter plate (drug plate). […] In the absence of substrate, the background was measured as LO control. […]
The reply should be a number in nM, with the unit left off.

Use these answered entries as a reference point.
# Line notation, Experimental target, Readout, Measurement
data = [
    ("c1ccc(Nc2ccc3c(N4CCOCC4)nncc3c2)cc1", "human p38α (Homo sapiens)", "IC50", 8),
    ("Cc1cc(F)ccc1-c1nncc2cc(Nc3cccc(F)c3C)ccc12", "human p38α (Homo sapiens)", "IC50", 0.3),
]

### Prompt Field: IC50 (human p38α (Homo sapiens)). Entry: "C[C@H](Oc1nncc2cc(Nc3ccc(F)cc3F)ccc12)C(F)(F)F"
### Response 4.6

### Prompt Another: "Cc1cc(S(C)(=O)=O)c(F)cc1-c1nncc2cc(Nc3ccc(F)cc3F)ccc12"
### Response 0.5

### Prompt What do you get for "Cc1ccc(F)cc1Nc1ccc2c(-c3ccc(F)cc3C)nncc2c1" ?
### Response 0.5

### Prompt Further, for "Cc1cc(F)ccc1-c1nncc2cc(Nc3ccccc3)ccc12" ?
### Response 0.7
